So I've got a bunch of compounds here, and I need their inhibition at 30 µM values.
# test target: human Kir2.1 (Homo sapiens, UniProt P63252)
# Construct: expressed in transfected cells
# Sequence (P63252 whole entry): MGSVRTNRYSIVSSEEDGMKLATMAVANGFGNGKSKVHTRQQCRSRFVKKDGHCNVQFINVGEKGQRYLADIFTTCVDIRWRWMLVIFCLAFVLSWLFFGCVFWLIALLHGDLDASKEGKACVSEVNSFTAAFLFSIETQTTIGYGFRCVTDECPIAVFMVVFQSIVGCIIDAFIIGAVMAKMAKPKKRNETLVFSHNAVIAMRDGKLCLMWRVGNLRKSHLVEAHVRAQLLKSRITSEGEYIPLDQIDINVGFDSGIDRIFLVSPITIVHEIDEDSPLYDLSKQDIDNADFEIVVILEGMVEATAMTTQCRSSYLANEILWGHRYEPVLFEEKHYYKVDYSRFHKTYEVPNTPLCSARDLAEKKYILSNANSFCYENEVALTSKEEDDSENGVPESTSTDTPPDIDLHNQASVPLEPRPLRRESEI
# test summary: Kir2.1 thallium flux assay
# Assay type: cell-based
# test conditions: compounds not fitting 4PL (> 10 μM): value at 30 μM relative to 30 μM ML133; read-out: Thallium Flux Efficacy (% Inhibition), 30 μM measured value
# Experimental: Thallium Flux Assay Experimental Conditions The Tl+ flux assays were conducted as previously described with modifications optimized for Kir2.1 cell line as described below.1 […] The initial slopes of the Tl+-induced fluorescence changes were fit to a four-parameter logistic equation using our in-house software Waveguide to determine potency and efficacy values. […]
Provide only the numeric value, understood in %.

human Kir2.1 (Homo sapiens, UniProt P63252) assay, compound COc1ccc(CNCc2ccc(N3CCCCC3)cc2)cc1 , recorded inhibition at 30 µM = 53

Readout inhibition at 30 µM for COc1ccc(CNCc2ccc(N3CCCC3)cc2)cc1 , test system human Kir2.1 (Homo sapiens, UniProt P63252), was 96

For the compound COc1ccc(CNCc2ccnc3ccccc23)cc1 , the measured inhibition at 30 µM on human Kir2.1 (Homo sapiens, UniProt P63252) was 75

Considering FC(F)Oc1ccc(CNCc2cccc3ccccc23)cc1 , its inhibition at 30 µM with human Kir2.1 (Homo sapiens, UniProt P63252) was recorded as 45

Here COc1ccc(CNCc2ccc(-c3ccccn3)cc2)cc1 was tested on human Kir2.1 (Homo sapiens, UniProt P63252), and its inhibition at 30 µM came to 90

The compound COc1ccc(CNCc2ccc(N3CCCCCC3)cc2)cc1 , when measured on human Kir2.1 (Homo sapiens, UniProt P63252), yielded inhibition at 30 µM of 46

Short answer on human Kir2.1 (Homo sapiens, UniProt P63252) for COc1ccc(CNCc2cccc3cnccc23)cc1 , inhibition at 30 µM: 45

N#Cc1ccc(CNCc2cccc3ccccc23)cc1 tested on human Kir2.1 (Homo sapiens, UniProt P63252) gave inhibition at 30 µM: 88

Fill in: human Kir2.1 (Homo sapiens, UniProt P63252) inhibition at 30 µM for Cc1cc(C)n(-c2ccc(CNCc3cccc4ccccc34)cc2)n1 = 50
